Reference source for all entries: patent US7605163B2

Target: mGlyT-1b (Mus musculus, UniProt P28571)
Sequence (P28571 1-651 isoform P28571-2): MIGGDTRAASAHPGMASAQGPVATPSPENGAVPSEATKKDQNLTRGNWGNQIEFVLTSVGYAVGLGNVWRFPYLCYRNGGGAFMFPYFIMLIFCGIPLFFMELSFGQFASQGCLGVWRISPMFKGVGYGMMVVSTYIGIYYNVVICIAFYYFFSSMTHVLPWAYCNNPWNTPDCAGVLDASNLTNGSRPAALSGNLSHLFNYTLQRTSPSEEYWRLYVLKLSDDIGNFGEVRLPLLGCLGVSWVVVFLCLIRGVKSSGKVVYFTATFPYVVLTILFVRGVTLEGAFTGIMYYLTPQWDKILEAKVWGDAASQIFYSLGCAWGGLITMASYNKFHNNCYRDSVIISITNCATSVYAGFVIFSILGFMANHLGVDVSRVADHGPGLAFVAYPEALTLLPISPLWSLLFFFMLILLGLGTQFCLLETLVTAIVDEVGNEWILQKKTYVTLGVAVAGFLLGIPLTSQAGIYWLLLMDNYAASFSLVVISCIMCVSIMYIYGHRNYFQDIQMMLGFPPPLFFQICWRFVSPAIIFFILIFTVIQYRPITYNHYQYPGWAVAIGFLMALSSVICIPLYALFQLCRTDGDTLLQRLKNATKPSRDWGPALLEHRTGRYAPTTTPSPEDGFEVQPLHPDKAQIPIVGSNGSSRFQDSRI
Experiment: Glycine Uptake Inhibition Assay (mGlyT-1b)
Settings: [3H]-glycine uptake inhibition at GlyT-1, Flp-in-CHO cells transfected with mGlyT-1b cDNA
Here, each record is paired with measured pIC50 data.
The meaning of pIC50 here: minus log10 of the concentration in molar units.

| compound | pIC50 |
| --- | --- |
| CC(C)Oc1ccc(S(C)(=O)=O)cc1C(=O)N1CCN(c2cc(F)c(S(=O)(=O)C3CC3)cc2F)CC1 [compound 595] | 7.31 |
| CCS(=O)(=O)c1ccc(OC(C)C)c(C(=O)N2CCN(c3ccc(C(F)(F)F)cc3F)CC2)c1 [compound 393] | 7.49 |
| CNS(=O)(=O)c1ccc(OCC2CCC2)c(C(=O)N2CCN(c3ccc(C#N)cc3F)CC2)c1 [compound 510] | 7.82 |
| O=C(c1cc([N+](=O)[O-])ccc1OCC(F)(F)C(F)F)N1CCN(c2ccc(C(F)(F)F)cc2)CC1 [Example 80] | 7.54 |

## Task // lookup pIC50 for CC(C)Oc1ccc(S(C)(=O)=O)cc1C(=O)N1CCN(c2ncc(C(F)(F)F)cc2F)CC1 [compound 437]
## Result 7.59
